Where do these numbers come from? They come from patent US12071430B2.

assay: Aqueous solubility test in 0.001N HCl; format: physicochemical; conditions: 0.001 N HCl aqueous buffer, simulated gastric fluid, kinetic from dmso stock; thermodynamic solubility, HPLC, pH=3, room temperature, 24 h
Readings of solubility at 24 h for the listed compounds
metric name: solubility at 24 h (µg/mL)

CCC(C)n1ncn(-c2ccc(N3CCN(c4ccc(OCC5COC(Cn6cncn6)(c6ccc(Cl)cc6Cl)O5)cc4)CC3)cc2)c1=O (stereo not drawn) [itraconazole, reference compound]; 0.0101
CCC(C)n1ncn(-c2ccc(N3CCN(c4ccc(OC[C@@H]5CO[C@@](Cn6cncn6)(c6ccc(Cl)cc6Cl)O5)cn4)CC3)cc2)c1=O (stereo partly drawn) [Compound 101]; 0.114
CCC(C)n1ncn(-c2ccc(N3CCN(c4ccc(OC[C@@H]5CO[C@@](Cn6ccnc6)(c6ccc(Cl)cc6Cl)O5)cn4)CC3)cc2)c1=O (stereo partly drawn) [Compound 4]; 2.94
CCC(C)n1ncn(-c2ccc(N3CCN(c4ccc(OC[C@@H]5CO[C@@](Cn6cncn6)(c6ccc(Cl)cc6Cl)O5)nc4)CC3)cc2)c1=O (stereo partly drawn) [Compound 100]; 0.116
CCC(C)n1ncn(-c2ccc(N3CCN(c4ccc(OC[C@@H]5CO[C@@](Cn6ccnc6)(c6ccc(Cl)cc6Cl)O5)nc4)CC3)cc2)c1=O (stereo partly drawn) [Compound 2]; 6.48
CCC(C)n1ncn(-c2ccc(N3CCN(c4ccc(OC[C@@H]5CO[C@@](Cn6cncn6)(c6ccc(Cl)cc6Cl)O5)cc4)CC3)cn2)c1=O (stereo partly drawn) [Compound 103]; 0.496

---

Test: Aqueous solubility test in 0.001N HCl
Type: physicochemical
Conditions: 0.001 N HCl aqueous buffer, simulated gastric fluid, kinetic from dmso stock; thermodynamic solubility, HPLC, pH=3, room temperature, 24 h
Description: The inhibitory effects of the new analogs on HUVEC proliferation were measured using a [3H]-thymidine incorporation assay. The log P values, used as an indicator of lipophilicity, were calculated using ALOGPS2.1 software. […] We determined the solubility of each analog in 0.001 N HCl (pH=3), which represents the acidic human gastric fluid. Aqueous solubility test. […] The ions of compound Exact Mass+1 and Exact Mass+23 were monitored as selected ion monitoring (SIM) for peak area integration. […]
# solubility at 24 h >= 20 µg/mL gives TRUE, anything below gives FALSE

CCC(C)n1ncn(-c2ccc(N3CCN(c4ccc(OC[C@@H]5CO[C@@](Cn6ccnc6)(c6ccc(Cl)cc6Cl)O5)cc4)CC3)cn2)c1=O (some centres unmarked); TRUE
CCC(C)n1ncn(-c2ccc(N3CCN(c4ccc(OC[C@@H]5CO[C@@](Cn6cncn6)(c6ccc(Cl)cc6Cl)O5)cc4)CC3)nc2)c1=O (some centres unmarked); FALSE
CCC(C)n1ncn(-c2ccc(N3CCN(c4ccc(OC[C@@H]5CO[C@@](Cn6ccnc6)(c6ccc(Cl)cc6Cl)O5)cn4)CC3)c(F)c2)c1=O (some centres unmarked); TRUE
CCC(C)n1ncn(-c2ccc(N3CCN(c4ccc(OC[C@@H]5CO[C@@](Cn6cnnn6)(c6ccc(Cl)cc6Cl)O5)cn4)CC3)c(F)c2)c1=O (some centres unmarked); FALSE
CCC(C)n1ncn(-c2ccc(N3CCN(c4ccc(OC[C@@H]5CO[C@@](Cn6ccnc6)(c6ccc(Cl)cc6Cl)O5)cc4)CC3)c(F)c2)c1=O (some centres unmarked); FALSE

---

biological target: CYP3A4 (Homo sapiens); construct: purchased ThermoFisher P2857; host or cells: baculosomes (insect-cell microsomes, own knowledge); assay: CYP3A4 enzyme assay (Vivid CYP3A4 Green Screening Kit); format: in vitro ADME; settings: % enzyme inhibition at 1 uM drug / % enzyme inhibition at 1 uM itraconazole
Sequence (P08684 whole entry): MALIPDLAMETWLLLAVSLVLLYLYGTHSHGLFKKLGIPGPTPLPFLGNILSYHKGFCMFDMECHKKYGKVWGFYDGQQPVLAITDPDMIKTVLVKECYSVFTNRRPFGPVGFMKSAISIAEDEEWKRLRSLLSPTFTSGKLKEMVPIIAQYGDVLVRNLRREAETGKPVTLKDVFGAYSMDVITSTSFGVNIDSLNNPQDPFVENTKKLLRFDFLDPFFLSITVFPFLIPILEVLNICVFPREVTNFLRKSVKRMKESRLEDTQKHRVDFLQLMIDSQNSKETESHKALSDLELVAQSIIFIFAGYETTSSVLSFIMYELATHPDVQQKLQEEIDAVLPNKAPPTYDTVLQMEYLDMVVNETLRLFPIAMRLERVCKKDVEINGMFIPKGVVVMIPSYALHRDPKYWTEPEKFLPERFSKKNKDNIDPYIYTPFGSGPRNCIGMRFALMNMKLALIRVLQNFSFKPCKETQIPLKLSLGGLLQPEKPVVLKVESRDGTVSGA
metric name: CYP3A4 Inhibition (compared to intracozanole at 1 um)

CCC(C)n1ncn(-c2ccc(N3CCN(c4ccc(OC[C@@H]5CO[C@@](CN(C)C)(c6ccc(Cl)cc6Cl)O5)cc4)CC3)cc2)c1=O (stereo partly drawn); No inhibition
CCC(C)n1ncn(-c2ccc(N3CCN(c4ccc(OC[C@@H]5CO[C@@](Cn6cc(C(F)(F)F)nc6C)(c6ccc(Cl)cc6Cl)O5)cc4)CC3)cc2)c1=O (stereo partly drawn); No inhibition
CCC(C)n1ncn(-c2ccc(N3CCN(c4ccc(OC[C@@H]5CO[C@@](Cn6cccn6)(c6ccc(Cl)cc6Cl)O5)cc4)CC3)cc2)c1=O (stereo partly drawn); No inhibition
